TESTED_ON: ERβ (Homo sapiens)
Sequence (Q92731 whole entry): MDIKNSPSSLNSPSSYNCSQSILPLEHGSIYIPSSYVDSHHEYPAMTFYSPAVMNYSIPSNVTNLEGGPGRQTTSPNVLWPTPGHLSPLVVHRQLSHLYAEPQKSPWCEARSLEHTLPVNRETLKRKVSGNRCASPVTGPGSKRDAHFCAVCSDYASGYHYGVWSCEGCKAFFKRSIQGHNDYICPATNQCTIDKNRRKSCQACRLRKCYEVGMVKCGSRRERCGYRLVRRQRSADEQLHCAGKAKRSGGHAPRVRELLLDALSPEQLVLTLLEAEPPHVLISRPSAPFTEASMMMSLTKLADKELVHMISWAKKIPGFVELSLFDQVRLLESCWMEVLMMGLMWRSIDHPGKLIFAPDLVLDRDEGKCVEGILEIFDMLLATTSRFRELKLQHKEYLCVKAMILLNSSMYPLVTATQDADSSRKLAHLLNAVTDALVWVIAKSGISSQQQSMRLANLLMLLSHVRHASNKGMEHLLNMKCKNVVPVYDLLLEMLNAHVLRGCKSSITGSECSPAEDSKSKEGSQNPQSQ
PROCEDURE_TEXT: Phage ELISA / fingerprint on ER immobilized on biotinylated ERE (Examples 2.3-2.5)
Assay type: binding
Parameters: purchased PanVera Corporation, Madison, WI; key: semiquantitative scale of 0 to 7+; 1+: semiquantitative scale of 0 to 7+; 2+: semiquantitative scale of 0 to 7+; 3+: semiquantitative scale of 0 to 7+; 4+: semiquantitative scale of 0 to 7+; 5+: semiquantitative scale of 0 to 7+; 6+: semiquantitative scale of 0 to 7+; semiquantitative scale of 0 to 7+
RUN_CONDITIONS: ERβ and Estradiol (1 µM)
Each record here notes measured binding activity, ERβ and Estradiol.

[
  {
    "SEQUENCE": "SREGLLMRLLIGDSR [Peptide 14E-β]",
    "PARAMETER": "binding activity, ERβ and Estradiol",
    "RESULT_VALUE": "7+"
  }
]

Asked: Tell me the measured binding activity, ERβ and Estradiol of SRLEELLRVGVLTSR [Peptide 6E-β] , please.
Given back: 7+

Asked: Entry SSLDLSQFPMTASFLRESR [Peptide 35E-β] has what binding activity, ERβ and Estradiol?
Given back: 6+

Asked: # get_value(readout='binding activity, ERβ and Estradiol', item= SSRLVPHSFWLDGLMHGSR [Peptide 21t-β] )
Given back: 3+

* * *

TESTED_ON: ERα (Homo sapiens, UniProt P03372)
Sequence (P03372 1-595): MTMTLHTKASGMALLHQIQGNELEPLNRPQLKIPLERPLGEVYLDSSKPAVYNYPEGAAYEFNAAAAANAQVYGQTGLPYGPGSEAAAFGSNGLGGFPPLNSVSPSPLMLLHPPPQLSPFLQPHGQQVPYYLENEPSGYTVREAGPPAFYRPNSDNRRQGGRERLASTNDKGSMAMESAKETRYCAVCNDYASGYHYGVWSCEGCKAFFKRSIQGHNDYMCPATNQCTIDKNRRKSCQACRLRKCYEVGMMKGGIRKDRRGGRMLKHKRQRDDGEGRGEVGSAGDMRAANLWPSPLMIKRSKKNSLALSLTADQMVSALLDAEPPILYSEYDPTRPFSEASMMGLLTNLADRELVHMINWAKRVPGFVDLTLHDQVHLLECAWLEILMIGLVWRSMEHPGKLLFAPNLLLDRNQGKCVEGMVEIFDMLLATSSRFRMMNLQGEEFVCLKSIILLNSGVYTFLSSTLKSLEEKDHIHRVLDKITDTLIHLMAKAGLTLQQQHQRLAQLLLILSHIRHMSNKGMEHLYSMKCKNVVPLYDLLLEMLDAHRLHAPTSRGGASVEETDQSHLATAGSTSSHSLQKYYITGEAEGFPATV
PROCEDURE_TEXT: Phage ELISA / fingerprint on ER immobilized on biotinylated ERE (Examples 2.3-2.5)
Assay type: binding
Design: purchased PanVera Corporation, Madison, WI; key: semiquantitative scale of 0 to 7+; 1+: semiquantitative scale of 0 to 7+; 2+: semiquantitative scale of 0 to 7+; 3+: semiquantitative scale of 0 to 7+; 4+: semiquantitative scale of 0 to 7+; 5+: semiquantitative scale of 0 to 7+; 6+: semiquantitative scale of 0 to 7+; semiquantitative scale of 0 to 7+
RUN_CONDITIONS: ERα and buffer
PARAMETER: binding activity, ERα and buffer

Worked set:
[
  {
    "SEQUENCE": "SSHCHTRLCSLLTSR [Peptide 15E-β]",
    "PARAMETER": "binding activity, ERα and buffer",
    "RESULT_VALUE": "6+"
  },
  {
    "SEQUENCE": "SRPYCLGDVWCLDSR [Peptide 2t-β]",
    "PARAMETER": "binding activity, ERα and buffer",
    "RESULT_VALUE": "2+"
  }
]

Asked: Requested read-out: binding activity, ERα and buffer. Entry: SSDLYSQMREFFQINLSR [Peptide 23t-β]
Given back: 4+

Ref: patent EP1073891B1
